Sourced from ChEMBL document CHEMBL1201862

System: CCRF-CEM
protocol_text: NCI tumour cell line growth inhibition, 48 h
The source made the active and inactive calls. Rule as the data show it: active = GI50 up to about 1.1 µM and inactive = higher.
# GI50 annotations
parameter_measured: GI50

>>> endpoint_value("CN1CC[C@@]2(c3cccc(O)c3)CC(=O)/C(=C/c3ccc(Cl)c(Cl)c3)[C@H]1C2")
"2.26 µM (inactive)"
>>> endpoint_value("CN(C)c1ccc2c(c1)C(=O)N(OS(=O)(=O)c1ccc([N+](=O)[O-])cc1)C2=O")
"18.7 µM (inactive)"
>>> endpoint_value("C=C=C(C(=O)OC)[S+]([O-])c1ccc([N+](=O)[O-])cc1[N+](=O)[O-] (centres undefined)")
"12 µM (inactive)"
>>> endpoint_value("O=[N+]([O-])c1cccc(-c2csc(N/N=C3\\NC/C(=C/c4ccc5c(c4)OCO5)S3)n2)c1")
"35.4 µM (inactive)"
>>> endpoint_value("O=c1oc2ccccc2c(O)c1C(C/C(CCN1CCCC1)=N\\Nc1ccccc1)c1ccccc1 (centres undefined)")
"27.9 µM (inactive)"
>>> endpoint_value("Cc1cc(Cl)ccc1NC(=O)CC/C(CC(=O)C(C)C)=N\\NC(=O)C[n+]1ccccc1")
"> 100 µM (inactive)"
>>> endpoint_value("O=C1C=CC(=O)c2c1ccc1c3ccccc3n(CCCCCCCCCCCCn3c4ccccc4c4ccc5c(c43)C(=O)C=CC5=O)c21")
"26.3 µM (inactive)"
>>> endpoint_value("COc1cccc(/C=C2\\N=C(Cl)OC2=O)c1O")
"> 55.3 µM (inactive)"
>>> endpoint_value("CCCCC1Cc2cc(O)ccc2-c2n1c1cc(O)ccc1[n+]2C.CCCCC1Cc2cc(O)ccc2-c2n1c1ccc(O)cc1[n+]2C (centres undefined)")
"9.59 µM (inactive)"
